Would you kindly list ADCC Maximum lysis (%) for each of these binders?
target: human Claudin 18.2 (hCLDN18.2) (human, UniProt P56856-2 1-261); assay: cell-based or functional assay
Give bare numbers, in %.

| binder | ADCC Maximum lysis (%) |
| --- | --- |
| ch-126A11 (antibody, V domains shown, also called chimeric antibody of clone 126A11) VH: QVQLKESGPGLVAPSQSLSITCTVSEFSLTTYGVSWVRQPPGKGLEWLGVIWGDGSTNYHSALISRLSISKDTSKSQVFLKLNSLQTDDTATYYCAKPGLRNAMDYWGQGTSVTVSS VL: DIVMTQSPSSLSVSAGEKVTMSCKSSQSLLNSGNQKNYLAWYQQKPGQPPKLLIYGASTRESGVPDRFTGSGSGTDFTLTISSVQAEDLAVYYCQNDLIYPLTFGAGTKLELK | 36.6 |
| ch-39C8 (antibody, V domains shown, also called chimeric antibody of clone 39C8) VH: QVQLQQSGAGLVKPGASVKISCKASGYAFSSYWMIWVKQRPGKGLEWIGQIYPGDGDTNYNGKFKGKATLTADKSSSTAFMQLSSLTSEDSAVYFCTRIYYGNAFAYWGQGTLVTVSA VL: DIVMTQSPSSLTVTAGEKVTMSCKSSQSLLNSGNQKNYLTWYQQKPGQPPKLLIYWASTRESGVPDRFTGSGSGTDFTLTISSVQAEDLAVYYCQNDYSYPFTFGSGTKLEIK | 34.5 |
| ch-37G8 (antibody, V domains shown, also called chimeric antibody of clone 37G8) VH: EVQLQQSGPVLVKPGASVKMSCKASGYTFSDYHMNWVKQSHGKSLEWVGLINPYNGGIRFNQKFKGKATLTVDKSSSTAYMELNSLTSEDSAVYYCATIYYGNSFAYWGQGTLVTVSA VL: DIVMTQSPSSLTVTAGEKVTLTCKSGQSLLNSGNQKNYLTWYQQKPGQPPKLLIYWASTRESGVPDRFTGSGSGTDFTLTISGVQAEDLAVYYCQNDYFYPYTFGGGTKLEIK | 31.7 |
| ch-40G7 (antibody, V domains shown, also called chimeric antibody of clone 40G7) VH: QVQLQQPGTELVKPGASVKLSCKASGYTFTNYWMHWVKQRPGHGLEWIGMIHPNSYSTNYNEKFRSKATLTVDKSSSTAYMQLSSLTSEDSAVYYCTRIYYGNAMDYWGQGTSVTVSS VL: DIVMTQSPSSLTVTAGERVTMSCKSSQSLFNSGNQKNYLTWYHQKPGQPPKLLIYWAFTRESGVPDRFTGSGSGTDFTLTIRSVQAEDLAVYYCQNDYSYPFTFGSGTKLEIK | 32.7 |

Form field ADCC Maximum lysis (%), entry ch-299B2 (antibody, V domains shown, also called chimeric antibody of clone 299B2) VH: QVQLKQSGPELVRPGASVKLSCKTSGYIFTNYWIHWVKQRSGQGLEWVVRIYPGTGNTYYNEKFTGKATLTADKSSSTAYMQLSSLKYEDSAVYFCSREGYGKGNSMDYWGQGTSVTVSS VL: DIVMTQSPSSLTVTAGEKVTMNCKSSQSLLNSGNQKNYLTWYQQKPGQPPKLLFYWASTRESGVPDRFTGSGSGTDFTLTISSVQAEDLAVYHCQNAYYYPYTFGGGTKLEMK : 33.5
